Origin of values: PubChem BioAssay AID504383

Biological target: Troponin I, cardiac muscle (Homo sapiens) + Troponin T, cardiac muscle (Homo sapiens) + Troponin C, slow skeletal and cardiac muscles (Homo sapiens) (UniProt P19429+P45379+P63316)
Assay: cardiac RTF calcium sensitivity activators, confirmation, biochemical, IANBD-TnC fluorescence, triplicate (AID 504383);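 note: 0% = DMSO at 0.472 mM calcium and 100% = DMSO at 2.9 mM calcium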
Settings: IANBD-labeled cardiac RTF, Ca2+ sensitivity fluorescence; at 7.2 µM; active compounds read high; scaled from EC20 to saturating calcium; tested at EC20 calcium, 0.472 mM
Hit rate of the full screen: of about 2,500 compounds, about 1,200 (48%) were called active. So high a share suggests a set chosen from earlier hits. The list shows a part of the results.
Measured Parameter: activation

Smiles Data	Result
O=C(OCCN1C(=O)c2cccc3c(N4CCOCC4)ccc(c23)C1=O)c1ccccc1Cl	13.6% (active)
N#Cc1cccc(NC(=S)Nc2ccccc2)c1	6.24% (inactive)
COc1ccc(/C=C2\SC(=S)N(CCCC(=O)Nc3ccccc3C(=O)O)C2=O)cc1OC	28.5% (active)
CCCN(CCC)S(=O)(=O)c1ccc(C(=O)OCCN2C(=O)c3cccc4c(N5CCOCC5)ccc(c34)C2=O)cc1	16.2% (active)

---

Biological target: Troponin I, cardiac muscle (Homo sapiens) + Troponin T, cardiac muscle (Homo sapiens) + Troponin C, slow skeletal and cardiac muscles (Homo sapiens) (UniProt P19429+P45379+P63316)
Assay: cardiac RTF calcium sensitivity activators, confirmation, biochemical, IANBD-TnC fluorescence, triplicate (AID 504383);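 note: 0% = DMSO at 0.472 mM calcium and 100% = DMSO at 2.9 mM calcium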
Conditions: IANBD-labeled cardiac RTF, Ca2+ sensitivity fluorescence; at 7.2 µM; active compounds read high; scaled from EC20 to saturating calcium; tested at EC20 calcium, 0.472 mM
Out of some 2,500 compounds screened, about 1,200 (48%) were called active. So high a share suggests a set chosen from earlier hits. The list shows a part of the results.
Measured Parameter: activation (%)

Compound	Numeric Value
COc1ccc(CC/C(C)=N\NC(N)=O)cc1	16.2
COC(=O)C1=COC(C)C2CN3CCc4c([nH]c5ccccc45)C3CC12 (stereo not given)	12.5
COC(=O)CN1C(=S)N(c2ccc(OC)cc2)C(=O)/C1=C/c1ccc(N2CCOCC2)cc1	11.4
Cc1nc2ccc(Cl)cc2nc(C)/c1=N\O	6.95
O=C(c1cccs1)N1CCN=C1SCc1cccc(F)c1	0.56

---

Target: Troponin I, cardiac muscle (Homo sapiens) + Troponin T, cardiac muscle (Homo sapiens) + Troponin C, slow skeletal and cardiac muscles (Homo sapiens) (UniProt P19429+P45379+P63316)
Experiment: cardiac RTF calcium sensitivity activators, confirmation, biochemical, IANBD-TnC fluorescence, triplicate (AID 504383);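 note: 0% = DMSO at 0.472 mM calcium and 100% = DMSO at 2.9 mM calcium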
Conditions: IANBD-labeled cardiac RTF, Ca2+ sensitivity fluorescence; at 7.2 µM; active compounds read high; scaled from EC20 to saturating calcium; tested at EC20 calcium, 0.472 mM
Hit rate of the full screen: of about 2,500 compounds, about 1,200 (48%) were called active. So high a share suggests a set chosen from earlier hits. The list shows a part of the results.
# activation listing for each entry below

Molecule	activation [%]
CCNc1ccc2noc3c2c1C(=O)c1ccccc1-3	15.8
C=CCNc1sc(C(=O)c2ccc(Br)s2)c(N)c1C#N	98
CCOc1ccc2noc3c2c1C(=O)c1ccccc1-3	3.61
O=[N+]([O-])c1ccc(C2=NN(c3ccccc3)C(c3ccco3)C2)cc1 (stereo not given)	1.19
Cc1nc([N+](=O)[O-])c(Br)n1CC(=O)c1ccc2ccccc2c1	10.5
CC(=O)C1=C(O)CCCC1=NCc1nc2ccccc2[nH]1	2.38
CCN1CCN(C2=CC3=CC(=C(C#N)C#N)CCC3CC2)CC1 (stereo not given)	0.71
CN1C(=O)NC(c2ccccc2[N+](=O)[O-])C2=C1CCCC2=O (stereo not given)	14.6
CCc1cc[n+](-c2nc3ccccc3nc2[N-]S(=O)(=O)c2ccc(Br)s2)cc1	-1.89
O=C(CC1C(=O)N(c2ccc(Cl)cc2)C(=S)N1CCc1ccncc1)Nc1ccc(F)cc1 (stereo not given)	3.64
Cc1[nH]c(=S)c(C#N)c(C)c1CCC#N	8.9
O=c1[nH]c2ccc(N=Cc3c(O)ccc4cc(Br)ccc34)cc2[nH]1	0.37
O=S(=O)(Nc1nc2ccccc2nc1N1CCN(c2ccccn2)CC1)c1ccc(Cl)cc1	0.27
COc1c(O)cccc1-c1nnn(CCC(=O)OCC(=O)c2ccccc2)n1	53.4
CC1=Nc2ccccc2/C1=C/c1nc(-c2ccc(C)s2)oc1O	7.81
CC[n+]1c(/C=C/N(C)c2ccccc2)oc2ccccc21	0.87
CCn1c(SCC(=O)c2ccc(Cl)cc2)nnc1C(C)C	13.2
COc1ccc(C(Nc2ccc(S(=O)(=O)NCC3CCCO3)cc2)C(=O)NC(C)(C)C)cc1OC (stereo not given)	9.44
Cc1nc([N+](=O)[O-])c(Sc2nc3ccccc3n2C)n1Cc1ccccc1	46.8
COCCN1C(=O)/C(=C/c2ccc(N3CCCC3)cc2)SC1=S	15.2
Oc1[nH]c2ccc(Br)cc2c1N=Nc1ccc(F)cc1	22.7
CCn1c(SCC(=O)NNC(=O)c2ccco2)nnc1-c1ccco1	-0.46
CC(C)(C)C1(O)CC(C(F)(F)F)=NN1C(=O)CCCc1ccccc1 (stereo not given)	3.64
O=C(Nc1ccc(N2CCN(C(=O)c3ccco3)CC2)cc1)c1ccc(F)cc1	14.9
CCCNC(=O)C12CCC(C)(C(=O)C1Br)C2(C)C (stereo not given)	12.4
O=C(COC(=O)C1(c2ccc(F)cc2)CCCC1)N1CCN(C(=O)c2ccco2)CC1	3.96
CCOC(=O)C(C)(C)Sc1nc2c(cnn2-c2ccc(Cl)cc2)c(=O)[nH]1	185
C/C(=N/Nc1ccnc2cc(Cl)ccc12)c1ccc(N)cc1	18.9
O=C(Cn1cc(/C=N/NC(=O)c2cccc3ccccc23)c2ccccc21)Nc1ccc(F)cc1	56.1
O=C(CSC1CC(=O)N(c2ccc(C(=O)O)cc2)C1=O)Nc1ccc2ccccc2c1 (stereo not given)	1.35
O=C(Nc1ccccc1C(=O)N/N=C/c1ccco1)c1ccc(F)cc1	10.3
Cn1c(/C(C#N)=C(\O)CN2CCN(Cc3ccccc3)CC2)nc2ccccc21	7.65
COc1cc2c(cc1[N+](=O)[O-])-c1ccccc1C2	302
Cc1ccc[n+](-c2nc([O-])sc2C=O)c1	64.2
CCCC(=O)Nc1ccc(-c2cnc(-c3ccc(NC(=O)CCC)cc3)nc2)cc1	13.5
